These measurements were taken from ChEMBL document CHEMBL4052646.

Listed below: IC50 values for each entry.
System: HUVEC
Assay: Cytotoxicity against HUVEC assessed as reduction in cell number after 48 hrs by MTT assay
Type: functional, cell-based
Conditions: Homo sapiens
Please state the figure in nM; there is no need to write the unit.

Worked set:
Qu. State, in one line, measured IC50 of "COC(=O)N(CCCCNC(=O)OCCC[C@H]1O[C@@H]2O[C@@]3(C)CC[C@H]4[C@H](C)CC[C@@H]([C@H]1C)[C@@]24OO3)CCCNC(=O)OCCC[C@H]1O[C@@H]2O[C@@]3(C)CC[C@H]4[C@H](C)CC[C@@H]([C@H]1C)[C@@]24OO3"
Ans. 1200

Qu. State, in one line, measured IC50 of "C[C@H]1[C@@H](CCCOC(=O)NCCCCNC(=O)OCCC[C@H]2O[C@@H]3O[C@@]4(C)CC[C@H]5[C@H](C)CC[C@@H]([C@H]2C)[C@@]35OO4)O[C@@H]2O[C@@]3(C)CC[C@H]4[C@H](C)CC[C@@H]1[C@@]24OO3"
Ans. 3600

Qu. State, in one line, measured IC50 of C[C@@H]1CC[C@H]2[C@@H](C)C(=O)O[C@@H]3O[C@@]4(C)CC[C@@H]1[C@]32OO4 [ARTEMISININ]
Ans. 1100

Qu. State, in one line, measured IC50 of "C[C@@H]1CC[C@H]2[C@@H](C)C(=O)N(CCOCCOC(=O)NCCCCNC(=O)OCCOCCN3C(=O)[C@H](C)[C@@H]4CC[C@@H](C)[C@@H]5CC[C@@]6(C)OO[C@]54[C@H]3O6)[C@@H]3O[C@@]4(C)CC[C@@H]1[C@@]23OO4"
Ans. 2300

Qu. State, in one line, measured IC50 of "COC(=O)N(CCCCN(CCCNC(=O)OCCC[C@H]1O[C@@H]2O[C@@]3(C)CC[C@H]4[C@H](C)CC[C@@H]([C@H]1C)[C@@]24OO3)C(=O)OC)CCCNC(=O)OCCC[C@H]1O[C@@H]2O[C@@]3(C)CC[C@H]4[C@H](C)CC[C@@H]([C@H]1C)[C@@]24OO3"
Ans. 7500

Continue with the compound presented below.
Qu. State, in one line, measured IC50 of C[C@H]1[C@@H](O)O[C@@H]2O[C@@]3(C)CC[C@H]4[C@H](C)CC[C@@H]1[C@@]24OO3 [ARTENIMOL]
Ans. 1400

* * *

Tested on: MCF7
Assay: Cytotoxicity against human MCF7 cells assessed as reduction in cell number after 48 hrs by MTT assay
Type: functional, cell-based
endpoint_label: Activity

Qu. State, in one line, measured Activity of "C[C@H]1[C@@H](CCCOC(=O)NCCCCNC(=O)OCCC[C@H]2O[C@@H]3O[C@@]4(C)CC[C@H]5[C@H](C)CC[C@@H]([C@H]2C)[C@@]35OO4)O[C@@H]2O[C@@]3(C)CC[C@H]4[C@H](C)CC[C@@H]1[C@@]24OO3"
Ans. Dose-dependent effect

Qu. State, in one line, measured Activity of "COC(=O)N(CCCCN(CCCNC(=O)OCCOCCN1C(=O)[C@H](C)[C@@H]2CC[C@@H](C)[C@@H]3CC[C@@]4(C)OO[C@]32[C@H]1O4)C(=O)OC)CCCNC(=O)OCCOCCN1C(=O)[C@H](C)[C@@H]2CC[C@@H](C)[C@@H]3CC[C@@]4(C)OO[C@]32[C@H]1O4"
Ans. Dose-dependent effect
